# Tested on: soluble FGF receptor 1 (FGFR-1; flg)
# PROTOCOL DESCRIPTION: Competition binding to soluble FGFR1 (displacement of 125I-FGF-2)
# Design: species or system murine
# ASSAY CONTEXT: 200 ng/ml heparin
PROPERTY MEASURED: Binding to soluble FGFR1 (competition with 125I-FGF-2)

| SUBSTANCE | OBSERVED VALUE |
| --- | --- |
| FGF-2: basic fibroblast growth factor, wild-type factor used as comparator (NNYNTYRSRKYTSWYVALKRT) [reference compound] | bind equally well |
| FGF-2LI: human FGF-2 with loop residues 118-122 replaced by Ala-Gln-Phe-Pro-Asn from human interleukin-1β (SEQ ID NO 15) | bind equally well |
| FGF-2LA: human FGF-2 with loop residues 118-122 replaced by Lys-Lys-His-Ala-Glu-Lys-His from bovine FGF-1 (SEQ ID NO 16) (KKHAEKH; printed: Lys-Lys-His-Ala-Glu-Lys-His) | bind equally well |
